recorded-endpoint: melting point

Below: 10 compounds and their reported melting point.
compound | observed-value
CCOC(=O)c1c(C(Cl)Cl)nc2c(C(F)(F)F)cccc2c1O | 88 °C
CN(C)C=C(C=O)c1cccc(C(F)(F)F)c1 | 128 to 132 °C
CN(C)CCNC(=O)c1cccc(-c2nnc(CSCCOc3ccccc3)o2)c1 | 64 °C
O=[N+]([O-])CS(=O)(=O)c1ccc(O)cc1 | 93 to 95 °C
COc1ccc(CC(=O)c2cccnc2)cc1OC | 188 to 191 °C
O=C(CCCCCc1ccc(Cl)cc1)N1CCN(c2cnccn2)CC1 | 88 to 89 °C
CC(=O)OC1CC(C)(C)N(OC(C)=O)C(C)(C)C1 | 72 to 73 °C
COc1ccc(Cn2c(=O)[nH]c(=O)c3[nH]c(C(C)C)nc32)cc1OC1CCCC1 | 282 to 283 °C
C[C@@H](NC(=O)c1c[nH]c2ncc(-c3nn(CCCO)c4cc(Cl)ccc34)nc12)C(=O)N1CC(C#N)C1 | 240 to 250 °C
Cc1n[nH]c(-c2ccc(F)cc2)c1-c1ccc2c(c1)NC(=O)CO2 | 295 to 298 °C

Task: Consider the compound CC1(c2c[nH]cn2)CCCCC1 and give its measured melting point.
Result: 73 to 75 °C

Task: Now the compound NC(=O)C=Cc1cc2c(Oc3ccc(Br)cc3)cncc2s1
Result: 195 to 196 °C

Task: And the next one, C=C(C)Cn1c(=O)n(C)c(=O)c2cn(Cc3cccc4ccccc34)nc21 ?
Result: 187 to 189 °C

Task: Also need Cc1cccc2sc(-n3nc(CCC(=O)N(C)O)cc3-c3ccc(Cl)cc3)nc12 , thanks.
Result: 156 to 158 °C

Task: Next compound: OCc1cnoc1-c1ccc(Br)cc1
Result: 104 to 105 °C

Task: What about O=C(O)CCCOc1ccc(C2=CCCCCC2)cc1 ?
Result: 87 to 88 °C

Task: Ok, now O=S(=O)(/C=C/c1ccc(Cl)cc1)Nc1ccccc1Cl
Result: 107 to 109 °C

Task: Item: CNS(=O)(=O)CCc1ccc2[nH]cc(CCN=Cc3ccccc3)c2c1
Result: 146 to 148 °C

----------
Each entry below carries its recorded melting point.

Consider the reported melting point for these compounds:
compound | melting point
CCOC(=O)c1ccc(C=C(C)C=O)o1 | 83 °C
CS(=O)(=O)c1ccc(-c2cc3cccccc-3c2-c2ccccc2)cc1 | 139 to 140 °C
O=C(O)CNC(=NS(=O)(=O)c1ccccc1)Nc1cccc(Cl)c1 | 218 °C

Task: Field request: melting point | item: COc1ccc2c(c1)CC(=O)N2
Result: 148 to 150 °C

Task: Quick one: CCCCCCN(Cc1ccccc1)Cc1nc(-c2ccc(-c3ccccc3)cc2)c[nH]1
Result: 120 to 122 °C

Task: Now the compound COc1ccc2c(c1OC)CC[C@@H]1NC(=O)CC[C@H]21 (relative stereo)
Result: 243 to 245 °C

Task: Item: O=C1Nc2cc(Cl)ccc2Sc2ccccc21
Result: 163 to 165 °C

----------
Here, each record is paired with measured melting point data.

molecule | melting point
Cc1ccccc1NC(=O)Nc1ccc(CNC(=O)OC(C)(C)C)cc1 | 200 to 202 °C
CNCC1(C2(O)CCCC2)Cc2cc3sccc3cc21 (stereo unspecified) | 166 to 169 °C
CCOC(=O)c1cn2c(cc(Cl)c3ccc(OC)cc32)n1 | 215 to 216 °C
Cc1nccnc1C(=O)Nc1ccc(C(C(F)(F)F)C(F)(F)F)c(CC(C)C)c1 | 133 to 134 °C
C=CCOc1cc(NC(=O)OCC)c(F)cc1Br | 66 to 68 °C

Task: So what does the record say about melting point for CC(C)CCNC(=O)c1ccc2c(c1)N(C(C)CN1CCCC1CO)c1ccccc1S2 (stereo unspecified) ?
Result: 140 °C

Task: Another molecule to check: COc1ccc2oc3cc(C#N)ccc3c(=O)c2c1
Result: 254 to 255 °C

Task: Another molecule to check: COP(=S)(OC)SCc1nc2sccn2c(=O)c1Cl
Result: 125 to 130 °C

Task: Proceed to NC(=O)CCc1ccc(Oc2ccc3c(c2)S(=O)(=O)N=C2CCCN23)cc1
Result: 178 to 183 °C

Task: And the next one, CCCCc1nn(-c2ccccc2Cl)c(=O)n1Cc1ccc(-c2ccccc2S(=O)(=O)NC(=O)C(F)(F)F)cc1 ?
Result: 163 to 166 °C

Task: // same read-out, input: Nc1nc(-c2ccc([N+](=O)[O-])cc2)c[nH]1
Result: 235 to 240 °C

----------
Entries and their melting point

Would you please look over these solved cases?
compound | observed-value
COCCNc1ccnc2c(NC(=O)c3c(Cl)cccc3Cl)cccc12 | 166 °C
Cc1cc(N)c(I)c(C)n1 | 103 to 110 °C
CCCCN(CCCC)c1ccc(C=Cc2ccc(C=CC3=C(C#N)C(=C(C#N)C#N)OC3(C)C)cc2)c(OC)c1 | 258 to 260 °C
Cc1cc(Br)cnc1CCCCNC1=NS(=O)(=O)c2ccc(Cl)cc21 | 231 to 235 °C
O=S(=O)(c1ccccc1)c1c[nH]c2c(CCN3CCN(Cc4ccccc4)CC3)cccc12 | 80 to 82 °C
OC[C@@H](O)CCc1ccc2ccccc2c1O | 105 to 108 °C
CC(O)CN(C)Cc1cc2c(=O)c(C(=O)NCc3ccc(Cl)cc3)cn(C)c2o1 (centres undefined) | 152 °C
COc1ccc(CCN(C)CCCc2ccc(NC(=O)c3cccc4c(=O)c5ccccc5[nH]c34)cc2)cc1OC | 114 °C

Task: Looking for the measured melting point of CCCN1CCN(c2cccc3ccc(NC(=O)c4ccc(Cl)cc4)cc23)CC1 , can you help?
Result: 130 to 132 °C

----------
recorded-endpoint: melting point

Worked set:
molecule | recorded-endpoint | observed-value
O=C(c1ccccc1)c1cc([N+](=O)[O-])ccc1NC1CC1 | melting point | 125 °C
COc1ccc2c(c1)C(C)(C)Oc1c-2ccc(O)c1C(C)=O | melting point | 103 to 104 °C
CC(CN1CCCC1)N1c2ccccc2Sc2ccc(C(=O)Nc3ccccc3)cc21 (racemic) | melting point | 163 °C
FCC(F)(F)Sc1nc(-c2ccccc2)c(-c2ccccc2)[nH]1 | melting point | 225 to 226 °C

Task: Give its melting point value. Item: CC(C)CN1CCC(N(C)S(=O)(=O)c2ccc(Nc3nccc(Nc4ccc(F)cc4)n3)cc2)CC1
Result: 194 to 195 °C

Task: What about this molecule? COc1ccc(-n2nc(NC(=O)N(C)C)cc2-c2ccc(OCCO)cc2)cc1
Result: 167 to 168 °C

Task: Then what about the molecule Nc1c(Nc2ccc(O)cc2)ncnc1-c1ccc(C(F)(F)F)cc1F ?
Result: 194 to 196 °C

Task: Again, but for CC(=O)OCC1OC(n2c(Cl)nc3cc(Br)c(Br)cc32)C(OC(C)=O)C1OC(C)=O (configuration not stated)
Result: 140 to 142 °C

Task: And then COc1cc2c(cc1Nc1ncc(Cl)c(Nc3ccc(C(N)=O)cc3OC)n1)CCN(CCS(C)(=O)=O)CC2 , what is it?
Result: 207 to 217 °C

----------
The compounds listed here are annotated with their melting point.

Task: Give its melting point value. Item: Clc1ccc(COC(CCCn2ccnc2)c2ccc(Cl)cc2Cl)c(Cl)c1 (configuration not stated)
Result: 108 °C

Task: Lookup COc1cccc2c(Nc3ccccc3C)nc(Cl)nc12
Result: 218 to 220 °C

Task: Can you handle COC1CC(NC(C)=O)C(OC(=O)c2ccccc2)C(CBr)O1 (configuration not stated) next?
Result: 173 °C

Task: Proceed to O=C(O)C(=NO)C(c1ccc(OCc2ccc3ccccc3n2)cc1)c1ccc(OCc2ccc3ccccc3n2)cc1
Result: 183 to 185 °C

----------
# melting point annotations

compound | observed-value
COc1ccc(/C=C/c2nc3c([nH]2)c(=O)n(C)c(=O)n3C)c(OC)c1OC | 265 to 266 °C
CCCN1CC(C)=CC2=C1N1CN(OC)C=C1N=N2 | 163 to 165 °C

Next compound, melting point to be filled in.
Task: Record request: melting point value, item Cn1c(CC(=O)O)cc(Cl)c1C(=O)c1ccc(S(C)=O)cc1 (stereo not drawn)
Result: 222 to 223 °C

----------
recorded-endpoint: melting point

compound | observed-value
O=C(O)CCC(CCC(=O)O)(CCC(=O)O)C(=O)c1ccc(Cl)cc1 | 135 to 137 °C
Oc1cc(O)c2c(c1)Oc1cc(Br)ccc1CC2 | 178 to 180 °C
COC(=O)c1c(N)cccc1[N+](=O)[O-] | 105 to 107 °C
Cc1cc(=O)n2nc(-c3ccncc3)nc2n1C | 263 to 267 °C
OC1CCn2c(CCc3ccccc3)nc3cccc1c32 (stereo unspecified) | 125 to 126 °C
CCOC(=O)c1nc(-c2ccc(Cl)cc2Cl)c(-c2ccc(Br)cc2)s1 | 129 to 130 °C
N#Cc1cc(/C=C/C(c2cc(Cl)c(Cl)c(Cl)c2)C(F)(F)F)ccc1-n1cnc(NC(=O)C2CC2)n1 (stereo unspecified) | 109 to 112 °C
CC(C(=O)O)c1ccc(Sc2nccs2)cc1 (stereo unspecified) | 85 to 87 °C
COc1ccc(C(=O)Nc2ccccc2)cc1NC(=S)Nc1cccc(C(F)(F)F)c1 | 177 to 178 °C
CCc1nnc(-c2ccc(OC)cc2)n1-c1ccc(C(=O)N(C)C)cc1 | 136 °C

Consider now this further compound.
Task: Fill in: melting point of CS(=O)(=O)c1cc2[nH]c(=O)c(=O)n(C3CCCCC3)c2cc1-n1cccc1 is ___
Result: > 280 °C
